Observed pIC50 values for acetylcholinesterase (AChE) (Electrophorus electricus, UniProt O42275) are listed in what follows.
pIC50: −log10 of the molar value.

smiles record	pIC50
CCSc1nc2ccccc2n1CC(=O)N/N=C/c1c2ccccc2cc2ccccc12	4.29
CCSc1nc2ccccc2n1CC(=O)N/N=C\c1ccc(OC)cc1OC	4.42
CCSc1nc2ccccc2n1CC(=O)N/N=C/c1ccc(Cl)cc1Cl	4.29
CCSc1nc2ccccc2n1CC(=O)N/N=C/c1cccc(O)c1O	4.30

====

UniProt:O42275 measurements of pKi, listed per entry.
pKi: −log10 of the molar value.

smiles record	pKi
CCSc1nc2ccccc2n1CC(=O)N/N=C\c1ccc(OC)cc1OC	4.85
CCSc1nc2ccccc2n1CC(=O)N/N=C/c1ccc(Cl)cc1Cl	4.77
CCSc1nc2ccccc2n1CC(=O)N/N=C/c1cccc(O)c1O	4.72

====

procedure details: Viability of human neutrophils (WST-1 cytotoxicity test)
Format: cell-based
test conditions: neutrophils isolated from human whole blood; human neutrophils 1 × 10^7 cells/ml; Conc. 491.014 µM

compound	viability at 30 min, 491.014 µM
CCSc1nc2ccccc2n1CC(=O)N/N=C/c1ccc(Cl)cc1Cl [Compound 10]	90.1%

====

procedure details: Viability of human neutrophils (WST-1 cytotoxicity test)
Format: cell-based
test conditions: neutrophils isolated from human whole blood; human neutrophils 1 × 10^7 cells/ml; Conc. 501.907 µM
parameter: viability at 30 min, 501.907 µM (%)

smiles record	parameter	measurement units	endpoint result
CCSc1nc2ccccc2n1CC(=O)N/N=C\c1ccc(OC)cc1OC	viability at 30 min, 501.907 µM	%	98

====

procedure details: Viability of human neutrophils (WST-1 cytotoxicity test)
Assay type: cell-based
test conditions: neutrophils isolated from human whole blood; human neutrophils 1 × 10^7 cells/ml; Conc. 539.913 µM

compound	viability at 30 min, 539.913 µM / %
CCSc1nc2ccccc2n1CC(=O)N/N=C/c1cccc(O)c1O [Compound 13]	77.2

Where do these numbers come from? They come from paper PMC9428891.
